Reference for the values: patent US10258613B2

Test: Serum T3 levels by mouse/rat T3 ELISA in anti-thyroid- or T3-treated mice
Assay type: in vivo
Details: mouse, serum, sc, 0.1 μg/g body weight; Gucy2e−/− mice, T3 0.1 μg/g s.c. once each day 30 days from P1, around 24 hours after last injection
measure: concentration at 24 h (nM)
Answer with a number only, understood to be in nM.

Req: Looking for the measured concentration at 24 h of `N[C@@H](Cc1cc(I)c(Oc2ccc(O)c(I)c2)c(I)c1)C(=O)O` , can you help?
Resp: 3.43

* * *

Assay: Serum T3 levels by mouse/rat T3 ELISA in anti-thyroid- or T3-treated mice
Assay type: in vivo
Settings: mouse, serum, sc, 0.1 μg/g body weight; Cngb3−/− mice, T3 0.1 μg/g s.c. once each day 30 days from P1, around 24 hours after last injection
measure: concentration at 24 h
Answer by giving the amount and then stating its unit.

Req: What does the data say about its concentration at 24 h? Entry: N[C@@H](Cc1cc(I)c(Oc2ccc(O)c(I)c2)c(I)c1)C(=O)O [T3, Triiodothyronine]
Resp: 3.85 nM
